TESTED SYSTEM: PVY in juice of infected plants (coat protein on virus) (Potato virus Y)
ASSAY EXPLANATION: dot-ELISA on diluted juice of PVY-infected plants
MEASURE NAME: dilution of PVY-infected juice still detected

# input Data request, read-out dilution of PVY-infected juice still detected, for monoclonal antibody M2 (antibody, V domains shown, also called MAb M2) VH: EVQLVESGGGLVQPKGSLKLSCAASDFTFNTHSMNWVRQAPGKVLEWIARIRSQSNNYATYYADSVKDRFTISRDDSQNMFYLQMNNLKTEDTAMYYCAGDYYGPFAYWGQGTLVAVSA VL: DVLMTQTPLSLPVSLGDQASISCRSGQSLVHSNGNTYLHWYLQKPGQSPKLLIYKVSNRFSGVPDRFSGSGSGTDFTLKISRVEAEDLGVYFCSQSTHVPWTFGGGTKLEIK
# output 640 times (fold dilution)
